- targetDesc: T1, CHD4 PHD2 (443–498) (human, UniProt Q14839 443-498)
- T1 construct: CHD4, human, second PHD finger, aa 443-498; Cloned into pGex6p1; also called second PHD finger of CHD4; source: E. coli BL21 DE3 pLysS, purified (glutathione Sepharose 4B, GST cleaved with Prescission protease)
- T1 sequence (Q14839 443-498): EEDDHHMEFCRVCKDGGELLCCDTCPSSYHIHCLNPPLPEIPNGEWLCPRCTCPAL
- testDetails: other fluorescence titration; intrinsic tryptophan fluorescence; H3 (1-12) peptide added to 0.5-1 uM CHD4 PHD construct; 25 °C, pH 7.5, 75 mM NaCl, 3 mM DTT; apparent
- testSettings: both partners purified
pKd: −log10 of the molar value.

binder	pKd
ARTKQTARKSTG (peptide, UniProt P68431 2-13, looked up, histone H3, aa 1-12, unmodified; also called H3 (1–12) peptide; histone peptide; source: synthetic peptide (University of Colorado Denver Peptide Core Facility)) [histone H3 peptide (aa 1–12)]	6.37
